// reported RP-LC retention time per item
Test: gradient 5% acetonitrile 3 min, to 50% in 2 min, to 85% in 15 min, held 3 min, 100 µL/min
Conditions: column: Zorbax Extend-C18 2.1 x 50 mm; eluents: water / acetonitrile, 0.1% formic acid
Could you give me the number in s? Just the number is fine.

molecule=CCn1cc(C(=O)NCCc2cccs2)c(=O)c2cc(OC)ccc21 parameter="RP-LC retention time" measurement_unit=s numeric_result=780
molecule="O=C(NC1CCCCCC1)C1CCCN(S(=O)(=O)c2c[nH]c(C(=O)N3CCCC3)c2)C1 (centres undefined)" parameter="RP-LC retention time" measurement_unit=s numeric_result=815
molecule=N#Cc1cccc(-c2cn3c(n2)N(C(=O)c2ccoc2)CCC3)c1 parameter="RP-LC retention time" measurement_unit=s numeric_result=644
molecule=COc1cc(-c2nc3ccccn3c2Nc2ccc3c(c2)OCCO3)ccc1O parameter="RP-LC retention time" measurement_unit=s numeric_result=629
molecule=O=C(CCc1cc2ccccc2[nH]c1=O)N1CCN(c2ncccn2)CC1 parameter="RP-LC retention time" measurement_unit=s numeric_result=645
molecule=COc1ccc(-c2noc(Cn3ccn(-c4cc(C)cc(C)c4)c(=O)c3=O)n2)cc1OC parameter="RP-LC retention time" measurement_unit=s numeric_result=834

[ask] Answer with reported RP-LC retention time of "Cc1cc(=O)n(CC(=O)Nc2ccccc2)c(N2CCCCC2)n1"
[reply] 670

[ask] Please give the documented RP-LC retention time of "CCC(=O)N1CCc2sc(C(=O)N3CCN(c4ccccn4)CC3)cc2C1"
[reply] 582

[ask] Return value of RP-LC retention time for input "Cc1csc(-c2cc(S(=O)(=O)N3CCC(C)CC3)cn2CC(=O)N2CCCCC2)n1" , no commentary.
[reply] 1130

----------
Assay: gradient 5% acetonitrile 3 min, to 50% in 2 min, to 85% in 15 min, held 3 min, 100 µL/min
Conditions: column: Zorbax Extend-C18 2.1 x 50 mm; eluents: water / acetonitrile, 0.1% formic acid
Here the recorded RP-LC retention time is given for each entry.

compound=O=C(CN1CCc2[nH]c3c(F)c(Cl)ccc3c(=O)c2C1)Nc1ccc2c(c1)OCCO2 result="643 s"
compound=O=S(=O)(c1ccc(-c2nnc(C3CC3)o2)o1)N1CCN(c2ccc(F)cc2)CC1 result="981 s"
compound="CCOC(=O)C1=C(N)Oc2c(c(=O)[nH]c3ccc(C)cc23)C1c1ccc(OC)cc1 (centres undefined)" result="881 s"
compound=CCn1ncn2cc(S(=O)(=O)Nc3ccc(C)cc3C)cc2c1=O result="937 s"

Okay, now this compound:
[ask] Return value of RP-LC retention time for input "Cc1ccc(C)c(CN2CCn3c(nn(CC4CC4)c3=O)C2)c1" , no commentary.
[reply] 879 s

----------
Assay: gradient 5% acetonitrile 3 min, to 50% in 2 min, to 85% in 15 min, held 3 min, 100 µL/min
Conditions: column: Zorbax Extend-C18 2.1 x 50 mm; eluents: water / acetonitrile, 0.1% formic acid
List of RP-LC retention time values.

Please review the following examples before continuing.
compound=CC(C)OCCCNC(=O)CCc1c(-c2ccc(F)cc2)nc2ccccn12 parameter="RP-LC retention time" result="622 s"
compound="Cc1cnc(C(=O)N2CCC(c3noc(-c4ccccn4)n3)C2)cn1 (centres undefined)" parameter="RP-LC retention time" result="628 s"
compound=Clc1ccc(-c2csc(Cc3nc(-c4ccccc4)no3)n2)cc1 parameter="RP-LC retention time" result="1310 s"

[ask] Answer with the recorded RP-LC retention time for the compound listed here: "CCOc1ccc(NC(=O)Cn2nc3c4sc(N(C)C)nc4ncn3c2=O)cc1"
[reply] 692 s

[ask] For "COc1ccc(-c2ncc3c(=O)n(Cc4cccc(OC)c4)c(=O)n(C)c3n2)cc1" , write its RP-LC retention time.
[reply] 1130 s

[ask] Quote RP-LC retention time reported for "N#CCN(c1ccc2c(c1)OCO2)S(=O)(=O)c1ccc2nncn2c1" please.
[reply] 692 s

[ask] Give me measured RP-LC retention time, please, for this compound: COc1ccc(C2Cn3cnc(C(=O)N4CCC(C(=O)NCCc5cccs5)CC4)c3CO2)cc1 (centres undefined)
[reply] 691 s

[ask] Please report RP-LC retention time for the following compound: "O=C(c1csc(C(=O)N2CCCC2)n1)N1CCN(Cc2ccccc2)CC1"
[reply] 603 s

----------
Assay: gradient 5% acetonitrile 3 min, to 50% in 2 min, to 85% in 15 min, held 3 min, 100 µL/min
Settings: column: Zorbax Extend-C18 2.1 x 50 mm; eluents: water / acetonitrile, 0.1% formic acid
Hi all, reminder that labels come from RP-LC retention time, split as lower segment = under 700 s, middle segment = from 700 s up to 900 s, upper segment = 900 s and over

These solved cases illustrate the format of a correct answer.
compound=Cc1c(F)cccc1NC(=O)N1C[C@@H](F)C[C@H]1C(=O)N1CCOCC1 assigned_category="lower segment"
compound=Cc1csc(NC(=O)CN2CCC3(CC2)NC(=O)N(Cc2ccc(Cl)cc2)C3=O)n1 assigned_category="upper segment"
compound="CN1CCN(CCNC(=O)c2cccc(N3CCNC(c4ccccc4)C3)n2)CC1 (stereo not given)" assigned_category="lower segment"
compound="CCOc1ccc(N2CC(c3nc(-c4ccccc4C)no3)CC2=O)cc1 (stereo not given)" assigned_category="upper segment"
compound=CCN1C(=O)COc2ccc(-c3nc(NC(=O)c4ccccc4Cl)sc3C)cc21 assigned_category="upper segment"

[ask] Form: Item = "CCN(CCCNC(=O)CCc1nnc2ccc(-c3ccccc3)nn12)c1ccccc1" ; Class = ?
[reply] lower segment

[ask] # classify by RP-LC retention time band: COc1nccnc1N1CCC(NC(=O)c2ccc3cc[nH]c3c2)C1 (stereo not given)
[reply] lower segment

[ask] The entry to classify is "O=C(c1cccc(Br)c1)N1CCN(C(=O)N2CCOCC2)CC1" ; which class holds it?
[reply] lower segment

[ask] # classify by RP-LC retention time band: Cc1ccc(C)c(C(=O)N2CCCC2c2nc(-c3cccc(Cl)c3)no2)c1 (stereo not given)
[reply] upper segment

[ask] For "Cn1nc(C(=O)NCC2(C)CCOCC2)c2ccccc21" , which RP-LC retention time bin applies?
[reply] middle segment

[ask] Hello team, could you let me know which band the following compound falls into: COc1ccc(-c2noc(C3CCCN3C(=O)C3CC3)n2)cc1 (stereo not given)
[reply] middle segment

[ask] Class label required: "Cc1csc(-n2nc(C)c(CC(=O)Nc3ccc(F)cc3)c2C)n1"
[reply] upper segment

[ask] GET /class?item= "Cc1cc(C)cc(Nc2nc(C)cc3nn(CC(=O)N(C)c4ccccc4)c(=O)n23)c1"
[reply] upper segment

[ask] Quick check: band for "CC(=O)N1C[C@@H](C(=O)NCc2cccs2)[C@H](c2nc(C)no2)C1"
[reply] lower segment

[ask] Exam item: assign "O=C(NC[C@H](O)CO)c1ccncc1Nc1ccc(I)cc1F" to the correct category.
[reply] lower segment

[ask] Which class is correct for the following compound? "O=C(c1ccsc1)N1CCc2cc(-c3csc(C4CC4)n3)ccc21"
[reply] upper segment

[ask] Category of "COCCCNS(=O)(=O)c1cc(-c2[nH]ncc2C(=O)N2CCCC2)oc1C" :
[reply] lower segment

[ask] Please indicate the class for "COCCNC(=O)c1nn(-c2ccc(Cl)cc2)nc1CO" based on its RP-LC retention time.
[reply] middle segment

[ask] For this compound, which bin applies? CCC1CCCCN1C(=O)c1cnc2nc(C)ccc2c1Nc1ccc(OC)c(Cl)c1 (stereo not given)
[reply] lower segment

[ask] Which RP-LC retention time category applies to COc1cc2c(cc1OC)C(COc1cccc(C(F)(F)F)c1)NCC2 (stereo not given) here?
[reply] lower segment

[ask] Kindly identify the class of CS(=O)(=O)N1CC(C(=O)Nc2ccccc2-c2ccccc2)Oc2ccccc21 (stereo not given) .
[reply] upper segment

[ask] In plain terms, what class is CN(C)C(=O)c1ccc2c(c1)N(CC(=O)NC1CCCCC1)C(=O)C1CCCCN21 (stereo not given) ?
[reply] middle segment

[ask] For the record "O=P(O)(O)c1cc(-c2ccccc2)oc1-c1ccccc1" , report the class its RP-LC retention time corresponds to.
[reply] middle segment

[ask] // bin(item) where item = "CCn1cnc2ccc(-c3noc(Cc4ccc(Cl)cc4)n3)cc21"
[reply] middle segment

----------
Experiment: gradient 5% acetonitrile 3 min, to 50% in 2 min, to 85% in 15 min, held 3 min, 100 µL/min
Conditions: column: Zorbax Extend-C18 2.1 x 50 mm; eluents: water / acetonitrile, 0.1% formic acid
parameter: RP-LC retention time (s)
Write the answer as a number in s, unit excluded.

In the examples that follow, each entry is paired with its recorded RP-LC retention time.
compound=Cc1[nH]c2ccccc2c1C(=O)C(=O)NCc1ccccn1 measurement_unit=s numeric_result=605
compound=CC(C)Cn1cc(CCNS(=O)(=O)c2ccc(F)c(Cl)c2)c2cccnc21 measurement_unit=s numeric_result=1000
compound=COc1cccc(CN2CCn3c(nnc3[C@@H]3C[C@@H](O)CN3Cc3ccccc3)C2)c1 measurement_unit=s numeric_result=622
compound=O=C(Cc1cccc2ccccc12)NCCOc1ccc(F)cc1 measurement_unit=s numeric_result=860
compound=Cn1cc(S(=O)(=O)N2CCC(C(=O)Nc3cccc(F)c3)CC2)cc1C(=O)N1CCCC1 measurement_unit=s numeric_result=772
compound=COCC(=O)Nc1ccc2nc(-c3ccc(F)cc3)cc(OCC(=O)OC)c2c1 measurement_unit=s numeric_result=682
compound="Cc1cc(C)c(S(=O)(=O)N2CCCC2c2nc(-c3ccc(F)cc3)no2)c(C)c1 (centres undefined)" measurement_unit=s numeric_result=1270
compound=O=S(=O)(c1ccc2nncn2c1)N(Cc1ccc(F)cc1)c1ccc(F)cc1 measurement_unit=s numeric_result=861
compound="O=C(c1c[nH]c2ccccc12)N1CCCC1c1nc(-c2ccccc2)n[nH]1 (centres undefined)" measurement_unit=s numeric_result=649
compound=CCOc1ccc2nc(C(=O)NC(C)C)cn2n1 measurement_unit=s numeric_result=731

[ask] Tell me RP-LC retention time reported for "Fc1cccc(-n2cc(-c3noc(-c4ccccc4)n3)nn2)c1"
[reply] 1070

[ask] Respond only with RP-LC retention time recorded for "NC(=O)C1CCN(C(=O)CCCn2c(=O)c3cccn3c3ccc(Br)cc32)CC1"
[reply] 685

[ask] // fetch RP-LC retention time given entry "O=C(Nc1ccccc1F)N1CCC(N2CCN(Cc3ccc(F)cc3)C2=O)CC1"
[reply] 811

[ask] Specify measured RP-LC retention time for "COc1ccc(CCc2nc3nccc(-c4ccncc4)n3n2)cc1" .
[reply] 697
